Please respond with reported IC50 for every item in the list.
Test system: IGR37-GP cells (Dabrafenib-resistant)
Assay: Dose-response curves and IC50, PrestoBlue cell viability, 72 h
Conditions: Homo sapiens, 72 h, read-out: Half-maximal inhibitory concentration (IC50)
Please append the unit to your numeric answer.

Field: example entries. Status: answers known.
molecule	target.or.test.system	IC50
CCS(=O)(=O)Nc1ccc2c(c1)/C(=C(/Nc1ccc(CN3CCCCC3)cc1)c1ccccc1)C(=O)N2 [Hesperadin, reference compound]	IGR37-GP cells (Dabrafenib-resistant)	1040 nM
C[C@@H](Oc1cc(-c2cnn(C3CCNCC3)c2)cnc1N)c1c(Cl)ccc(F)c1Cl	IGR37-GP cells (Dabrafenib-resistant)	6740 nM
CC(=O)Nc1cccc(-n2c(=O)n(C3CC3)c(=O)c3c(Nc4ccc(I)cc4F)n(C)c(=O)c(C)c32)c1	IGR37-GP cells (Dabrafenib-resistant)	0.7 nM
CNC(=O)c1cc(Oc2ccc(NC(=O)Nc3ccc(Cl)c(C(F)(F)F)c3)cc2)ccn1	IGR37-GP cells (Dabrafenib-resistant)	9520 nM
C=CCn1c(=O)c2cnc(Nc3ccc(N4CCN(C)CC4)cc3)nc2n1-c1cccc(C(C)(C)O)n1 [MK-1775, reference compound]	IGR37-GP cells (Dabrafenib-resistant)	289 nM

Required: IC50, one value per molecule below.
1. COc1cc(OC)c(/C=C/S(=O)(=O)Cc2ccc(OC)c(NCC(=O)O)c2)c(OC)c1
2. NC1(c2ccc(-c3nc4ccn5c(=O)[nH]nc5c4cc3-c3ccccc3)cc2)CCC1

Result:
90 nM
4730 nM

Give IC50 for each listed item.
1. Cc1ccc(C(=O)Nc2ccc(CN3CCN(C)CC3)c(C(F)(F)F)c2)cc1C#Cc1cnc2cccnn12
2. NC(=O)Nc1cc(-c2cccc(F)c2)sc1C(=O)N[C@H]1CCCNC1
3. O=C(O)c1ccc2c(c1)nc(Nc1cccc(Cl)c1)c1ccncc12
4. CO[C@H]1C[C@@H]2CC[C@@H](C)[C@@](O)(O2)C(=O)C(=O)N2CCCC[C@H]2C(=O)O[C@H]([C@H](C)C[C@@H]2CC[C@@H](OC(=O)C(C)(CO)CO)[C@H](OC)C2)CC(=O)[C@H](C)/C=C(\C)[C@@H](O)[C@@H](OC)C(=O)[C@H](C)C[C@H](C)/C=C/C=C/C=C/1C
5. CCc1cnn2c(NCc3ccc[n+]([O-])c3)cc(N3CCCC[C@H]3CCO)nc12

Result:
1. 1350 nM
2. 70 nM
3. 9090 nM
4. 9450 nM
5. 13.6 nM
